Molecular target: D2 dopamine receptors (Rattus norvegicus, UniProt P61169)
Sequence (P61169 whole entry): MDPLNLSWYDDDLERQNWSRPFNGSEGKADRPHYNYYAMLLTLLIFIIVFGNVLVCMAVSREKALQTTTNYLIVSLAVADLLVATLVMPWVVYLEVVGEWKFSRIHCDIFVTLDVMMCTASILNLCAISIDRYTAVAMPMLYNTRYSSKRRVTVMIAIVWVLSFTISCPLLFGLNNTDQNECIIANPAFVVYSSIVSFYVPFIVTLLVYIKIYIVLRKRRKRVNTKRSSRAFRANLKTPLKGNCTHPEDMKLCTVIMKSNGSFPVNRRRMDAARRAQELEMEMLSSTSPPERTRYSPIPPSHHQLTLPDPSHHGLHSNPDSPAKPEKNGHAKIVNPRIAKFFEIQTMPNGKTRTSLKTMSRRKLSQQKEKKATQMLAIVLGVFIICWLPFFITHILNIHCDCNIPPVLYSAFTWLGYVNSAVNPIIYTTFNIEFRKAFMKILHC
Test: inhibition of tritiated (S)-sulpiride binding to D2 dopamine receptors in vitro
Details: rat striatum, tritiated (S)-sulpiride 1 nM, 4° C., 40 min
pKi: −log10 of the molar value. Where a name gives a salt, the structure may show the parent alone.
Reported pKi values follow for various molecules
parameter: pKi

# molecule, valueModifier, valueObserved
data = [
    ("Nc1c(CN2CCN(c3cccc4c3OCCO4)CC2)c(C2CC2)nn1-c1ccncc1 [Example 34]", "=", 7.06),
    ("COc1ccccc1N1CCN(Cc2c(C3CC3)nn(-c3ccccc3)c2N)CC1 [Example 9]", "=", 6.43),
    ("C=CCn1c(-c2ccncc2)nn(CN2CCN(c3ccccc3OC)CC2)c1=S [Example 49]", "=", 6.92),
    ("Cc1ccccc1N1CCN(Cc2c(C3CC3)nn(-c3ccccc3)c2N)CC1 [Example 19]", "<", 6.30),
    ("Nc1c(CN2CCN(c3cccc4c3OCCO4)CC2)c(C2CCCC2)nn1-c1ccccc1 [Example 21]", "=", 6.35),
    ("C=CCn1c(-c2cccnc2)nn(CN2CCN(c3cccc(C)c3C)CC2)c1=S [Example 61]", "<", 6.30),
    ("C=CCn1c(-c2cccnc2)nn(CCN2CCN(c3cccc(C)c3C)CC2)c1=O [Example 65, hydrochloride]", "<", 6.30),
    ("CC1(CN2CCN(c3cccc4c3OCCO4)CC2)N=C(c2ccccc2)NC1=O (stereo not drawn) [Example 38]", "=", 6.55),
    ("N#Cc1ccc(-n2nc(C3CC3)c(CN3CCN(c4cccc5c4OCCO5)CC3)c2N)cc1 [Example 32]", "=", 6.49),
    ("COc1ccccc1N1CCN(Cn2nc(C(F)(F)F)n(C)c2=S)CC1 [Example 54]", "=", 6.61),
    ("Cn1c(N)c(CN2CCN(c3cccc4ccccc34)CC2)c(=O)n1-c1ccccc1 [Example 4]", "=", 6.95),
    ("Cn1nc(C2CCCC2)c(CN2CCN(c3cccc4c3OCCO4)CC2)c1N [Example 31]", "<", 6.30),
    ("Nc1c(CN2CCN(c3cccc4c3OCCO4)CC2)c(C2CC2)nn1-c1ccccc1Cl [Example 33]", "<", 6.30),
    ("Nc1c(CN2CCN(c3cccc(C(F)(F)F)c3)CC2)c(C2CC2)nn1-c1ccccc1 [Example 15]", "=", 6.47),
    ("Nc1c(CN2CCN(c3cccc4c3OCCO4)CC2)c(C2CC2)nn1Cc1ccccc1 [Example 26]", "=", 6.73),
    ("Nc1c(CN2CCN(c3cccc4c3OCCO4)CC2)c(C2CC2)nn1-c1ncccn1 [Example 35]", "=", 6.74),
    ("COc1ccccc1N1CCN(Cn2ncn(C)c2=S)CC1 [Example 55]", "=", 7.14),
    ("CC(C)(C)n1nc(C2CC2)c(CN2CCN(c3cccc4c3OCCO4)CC2)c1N [Example 24]", "=", 6.37),
]
